system: SK-MEL-2; experiment: Cytotoxicity against human SK-MEL-2 cells assessed as cellular growth at 10 uM by SRB assay; type: functional
quantity_measured: Activity (%)
The answer is to be given in %; state only the numeric part.

Reference set, count: 10
>  <test_smiles>
Cc1ccc(CNC(=O)c2[nH]c3ccccc3c2Cl)cc1

>  <Activity / %>
99.35

$$$$
>  <test_smiles>
O=C(NCCc1ccc(Cl)cc1)c1[nH]c2ccccc2c1Cl

>  <Activity / %>
130.7

$$$$
>  <test_smiles>
Cc1ccc2c(c1)N/C(=C/C(=O)c1ccc(Cl)cc1)C(=O)O2

>  <Activity / %>
108.87

$$$$
>  <test_smiles>
O=C(NCc1ccc(Cl)cc1)c1[nH]c2ccccc2c1Cl

>  <Activity / %>
111.13

$$$$
>  <test_smiles>
CC1(C)CCc2cc(-c3ccn(S(=O)(=O)c4ccccc4Cl)n3)ccc2O1

>  <Activity / %>
102.25

$$$$
>  <test_smiles>
O=C(Nc1nc2ccc(Cl)cc2s1)c1ccc(Cl)cc1Cl

>  <Activity / %>
116.07

$$$$
>  <test_smiles>
Clc1ccc(-c2nc(-c3cccs3)no2)cc1

>  <Activity / %>
116.4

$$$$
>  <test_smiles>
O=C(Nc1ccc(S(=O)(=O)Nc2nccs2)cc1)c1cccs1

>  <Activity / %>
113.23

$$$$
>  <test_smiles>
CC1(C)CC(=O)c2cc3c(N)c(C(=O)Nc4ccc(F)cc4)sc3nc2C1

>  <Activity / %>
122.76

$$$$
>  <test_smiles>
Nc1c(C(=O)Nc2ccccc2F)sc2nc3c(cc12)C(=O)CCC3

>  <Activity / %>
42.64

$$$$

Value lookup for Activity; key = O=c1/c(=C/c2ccccc2)sc2nc(-c3ccc(Cl)cc3Cl)nn12
117.96

Value lookup for Activity; key = Cc1ccc(Cl)cc1NC(=O)c1sc2nc3c(cc2c1N)C(=O)CCC3
64.51

Value lookup for Activity; key = Cc1cc(C)c(NC(=O)c2sc3nc4c(cc3c2N)C(=O)CCC4)c(C)c1
36.14

Value lookup for Activity; key = c1ccc(-c2nc(-c3cccs3)no2)cc1
103.18

Value lookup for Activity; key = O=C(Nc1nc2ccc(Cl)cc2s1)c1ccc(Cl)cc1
111.04

###

test system: SF-268; assay: Cytotoxicity against human SF268 cells assessed as cellular growth at 10 uM by SRB assay; assay type: functional
quantity_measured: Activity (%)
The answer is to be given in %; state only the numeric part.

>  <test_smiles>
c1ccc(-c2nc(-c3cccs3)no2)cc1

>  <value_units>
%

>  <Activity>
105.23

$$$$
>  <test_smiles>
CC1(C)CCc2cc(-c3ccn(S(=O)(=O)c4ccc(Cl)cc4)n3)ccc2O1

>  <value_units>
%

>  <Activity>
90.72

$$$$
>  <test_smiles>
N#Cc1ccc(NC(=O)c2sc3nc4c(cc3c2N)C(=O)CCC4)cc1

>  <value_units>
%

>  <Activity>
102.29

$$$$
>  <test_smiles>
CC1(C)CC(=O)c2cc3c(N)c(C(=O)Nc4ccc(Cl)cc4)sc3nc2C1

>  <value_units>
%

>  <Activity>
124.88

$$$$

Value lookup for Activity; key = O=c1/c(=C/c2ccccc2)sc2nc(-c3ccc(Cl)cc3Cl)nn12
107.58

Value lookup for Activity; key = COc1cccc(C(=O)Nc2nc3ccc(Cl)cc3s2)c1
106.92

Value lookup for Activity; key = O=C(NCCc1ccc(Cl)cc1)c1[nH]c2ccccc2c1Cl
97.34

Value lookup for Activity; key = O=C(Nc1nc2ccccc2s1)c1ccc(F)cc1
114.42

Value lookup for Activity; key = CC1(C)CC(=O)c2cc3c(N)c(C(=O)NCc4ccccc4)sc3nc2C1
102.72

Value lookup for Activity; key = COc1ccc(Cl)cc1C(=O)Nc1nc2ccc(Cl)cc2s1
83.22

Value lookup for Activity; key = Cc1ccc(S(=O)(=O)NC2=NC(=O)/C(=C\c3ccccc3)S2)cc1
99.46

Data provenance: ChEMBL document CHEMBL2202954
